- Experimental Target: Glutamate NMDA receptor; Grin1/Grin2a (Rattus norvegicus, UniProt P35439+Q00959)
- Sequence (Q00959 whole entry, other chains not shown): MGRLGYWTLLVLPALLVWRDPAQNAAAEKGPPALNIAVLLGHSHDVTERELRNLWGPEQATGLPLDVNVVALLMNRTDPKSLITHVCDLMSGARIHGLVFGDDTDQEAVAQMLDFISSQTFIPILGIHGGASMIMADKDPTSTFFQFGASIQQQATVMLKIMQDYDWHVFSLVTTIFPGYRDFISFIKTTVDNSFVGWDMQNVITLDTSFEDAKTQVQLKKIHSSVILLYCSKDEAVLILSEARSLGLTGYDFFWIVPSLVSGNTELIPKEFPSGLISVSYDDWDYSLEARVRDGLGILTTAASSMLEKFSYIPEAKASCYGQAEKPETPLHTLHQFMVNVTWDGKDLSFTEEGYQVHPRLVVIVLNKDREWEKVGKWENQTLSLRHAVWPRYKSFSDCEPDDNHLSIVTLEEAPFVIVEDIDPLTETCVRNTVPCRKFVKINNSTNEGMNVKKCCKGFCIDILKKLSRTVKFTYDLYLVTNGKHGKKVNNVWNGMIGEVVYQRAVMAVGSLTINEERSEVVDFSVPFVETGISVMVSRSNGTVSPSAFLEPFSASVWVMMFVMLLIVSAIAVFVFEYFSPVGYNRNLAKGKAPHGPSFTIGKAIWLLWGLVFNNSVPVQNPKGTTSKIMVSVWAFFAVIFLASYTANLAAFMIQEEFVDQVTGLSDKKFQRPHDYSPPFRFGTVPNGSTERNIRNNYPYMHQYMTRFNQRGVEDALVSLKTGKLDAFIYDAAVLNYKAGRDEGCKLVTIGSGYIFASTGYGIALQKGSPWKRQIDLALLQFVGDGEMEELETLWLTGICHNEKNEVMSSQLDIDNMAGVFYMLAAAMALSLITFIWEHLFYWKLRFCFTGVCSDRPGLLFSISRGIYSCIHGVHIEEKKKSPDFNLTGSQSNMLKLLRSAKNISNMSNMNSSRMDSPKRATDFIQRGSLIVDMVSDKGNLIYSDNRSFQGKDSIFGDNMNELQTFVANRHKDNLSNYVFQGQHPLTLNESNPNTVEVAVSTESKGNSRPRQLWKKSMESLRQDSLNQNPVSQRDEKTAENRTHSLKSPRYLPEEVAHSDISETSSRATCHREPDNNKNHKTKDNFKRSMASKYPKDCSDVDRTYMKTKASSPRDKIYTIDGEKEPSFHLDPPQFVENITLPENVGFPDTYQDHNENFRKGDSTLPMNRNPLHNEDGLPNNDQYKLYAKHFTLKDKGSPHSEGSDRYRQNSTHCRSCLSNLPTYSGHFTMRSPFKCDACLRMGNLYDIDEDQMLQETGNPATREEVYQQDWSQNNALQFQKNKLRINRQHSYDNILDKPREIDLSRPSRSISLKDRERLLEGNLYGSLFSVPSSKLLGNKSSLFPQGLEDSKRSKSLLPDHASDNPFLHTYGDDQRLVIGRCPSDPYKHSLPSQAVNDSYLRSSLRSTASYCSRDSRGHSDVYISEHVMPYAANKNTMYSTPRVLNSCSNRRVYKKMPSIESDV
- Assay: Inhibition of rat GluN1a/GluN2A expressed in Xenopus laevis oocytes assessed as inhibition of L-Glu and Gly-evoked currents under illumination with blue light at 470 nanometer condition at -80 mV membrane potential by two electrode voltage-clamp assay
- Format: cell-based
Measure Name: IC50 (nM)
Write the answer as a number in nM, unit excluded.

The reported value for `CCN(CC)c1ccc(/N=N/c2ccc(C(=O)N[C@@H](CC(N)=O)C(=O)NCCCCCCCCNCCCCNC(=O)[C@@H](N)CCCNC(=N)N)cc2)cc1` in terms of IC50 is 1200

Source: ChEMBL document CHEMBL4196152
